Entries and their emission maximum
# EXPERIMENT NOTES: solvent given as SMILES
# CONDITION SET: in C1COCCO1
Write the answer as a number in nm, unit excluded.

Exercise: I am curious: what emission maximum value has been reported for "c1ccc2sc(-c3ccc(-c4nnc(-c5ccc(-c6nnc(-c7ccc(-c8cc9ccccc9s8)s7)o6)cc5)o4)s3)cc2c1" ?
Solution: 397

Exercise: I am curious: what emission maximum value has been reported for "c1ccc(-c2nc(-c3nc(-c4ccccc4)c(-c4ccccc4)o3)oc2-c2ccccc2)cc1" ?
Solution: 411

Exercise: I am curious: what emission maximum value has been reported for "O=C1OC(c2ccccc2)=N/C1=C\c1ccccc1" ?
Solution: 447

Exercise: I am curious: what emission maximum value has been reported for "CC(C)CCC[C@@H](C)[C@H]1CC[C@H]2[C@@H]3CC=C4C[C@@H](OC(=O)Oc5cc(/C=C/C=C/c6ccc(N(C)C)cc6)ccc5[N+](=O)[O-])CC[C@]4(C)[C@H]3CC[C@]12C" ?
Solution: 620

Exercise: I am curious: what emission maximum value has been reported for "CCCCNC(=O)c1nc2c(N(C)C)nc(N(C)C)nc2n1Cc1ccccc1" ?
Solution: 392

Exercise: I am curious: what emission maximum value has been reported for "Cc1cccc(Nc2ccccc2C(=O)O)c1C" ?
Solution: 437

Exercise: I am curious: what emission maximum value has been reported for "Cc1cccc2nc3c(=O)[nH]c(=O)[nH]c3nc12" ?
Solution: 437

Exercise: I am curious: what emission maximum value has been reported for "COc1c2ccccc2c(-c2ccccc2)c2ccccc12" ?
Solution: 424

Exercise: I am curious: what emission maximum value has been reported for "COc1cccc(-n2c(-c3ccc(O)cc3)nc(C)c2C)c1" ?
Solution: 368

Exercise: I am curious: what emission maximum value has been reported for "N#CC(C#N)=Cc1cn(-c2ccccc2)nc1-c1ccccc1" ?
Solution: 426

Exercise: I am curious: what emission maximum value has been reported for O=P1(c2ccccc2)C(c2cc(C(F)(F)F)cc(C(F)(F)F)c2)=Cc2c3ccc4cccc5ccc(c6cc(-c7ccc(N(c8ccccc8)c8ccccc8)cc7)n1c26)c3c45 (centres undefined) ?
Solution: 595

Exercise: I am curious: what emission maximum value has been reported for CCC12C(=C3C(=C4c5ccc(-c6ccc(C(C)=O)cc6)cc5S(=O)(=O)C41CC)C(F)(F)C(F)(F)C3(F)F)c1ccc(-c3ccc(C(C)=O)cc3)cc1S2(=O)=O (centres undefined) ?
Solution: 561.95

###

# EXPERIMENT NOTES: solvent given as SMILES
# CONDITION SET: in ClCCl
MEASURED ATTRIBUTE: emission maximum (nm)
Write the answer as a number in nm, unit excluded.

COMPOUND	emission maximum, nm
CCCCCCn1c(=O)c2c3[nH]c4ccccc4oc3c3c(=O)n(CCCCCC)c(=O)c3c2c1=O	560
N#Cc1cc(-n2c3ccccc3c3ncccc32)c(-n2c3ccccc3c3ncccc32)cc1C#N	476.51
CCN1\C(=C/C=C/C=C/C2=[N+](CC)c3ccc4cc(Br)ccc4c3C2(C)C)C(C)(C)c2c1ccc1cc(Br)ccc21	714
CC(C)[Si](C#Cc1c2cc3ccccc3cc2c(C#Cc2ccc(C(F)(F)F)cc2)c2cc3ccccc3cc12)(C(C)C)C(C)C	667
CCCCCCC1(CCCCCC)c2cc(-c3ccc(-c4ccc(-c5ccc(-c6ccc7c(c6)C(CCCCCC)(CCCCCC)c6cc(-n8c9ccccc9c9ccccc98)ccc6-7)s5)c5nsnc45)s3)ccc2-c2ccc(-n3c4ccccc4c4ccccc43)cc21	611
CC(C)(C)c1ccc(-n2c(-c3ccc(-c4cccc(-c5c(-c6ccccc6)nc6ccccn56)c4)cc3)nc3c4ccccc4c4ccccc4c32)cc1	417
c1ccc2c(C3=C(c4cccc5ccccc45)c4cccc5c4c(cc4nc6ccccc6nc45)O3)cccc2c1	538
CCCCC1=Cc2c3ccc4cccc5ccc(c6cc(-c7ccc(N(c8ccccc8)c8ccccc8)cc7)n(c26)P1(=O)c1ccccc1)c3c45 (configuration not stated)	551
CCn1c2ccccc2c2cc(-c3cc(-c4ccc5c(c4)c4ccccc4n5CC)nc(-c4ccccc4)n3)ccc21	405
Cc1ccc([B-]2(c3ccc(C)cc3)n3nc(C(F)(F)F)cc3-c3c4ccccc4cc[n+]32)cc1	407

Exercise: I am curious: what emission maximum value has been reported for "CN(C)c1ccc(/C=C/c2ccc3ccccc3[n+]2C)cc1" ?
Solution: 645

Exercise: I am curious: what emission maximum value has been reported for "CCCCCCCCCCCCOc1ccc(C#Cc2ccc(C#Cc3ccc(OCCCCCCCCCCCC)c(OCCCCCCCCCCCC)c3)c3nc4c5ccccc5c5ccccc5c4nc23)cc1OCCCCCCCCCCCC" ?
Solution: 566

Exercise: I am curious: what emission maximum value has been reported for "CCN(CC)c1ccc([N+]2=Cc3ccc4c5c(ccc4c3O[B-]2(c2c(F)c(F)c(F)c(F)c2F)c2c(F)c(F)c(F)c(F)c2F)C=[N+](c2ccc(N(CC)CC)cc2)[B-](c2c(F)c(F)c(F)c(F)c2F)(c2c(F)c(F)c(F)c(F)c2F)O5)cc1" ?
Solution: 683

Exercise: I am curious: what emission maximum value has been reported for "CCCCn1c(-c2ccc(-c3nnc(-c4cccs4)o3)cc2)nc2c3ccccc3c3ccccc3c21" ?
Solution: 448

Exercise: I am curious: what emission maximum value has been reported for "Cc1c(C)c2c3ccccc3[nH]c2c2ccccc12" ?
Solution: 370

Exercise: I am curious: what emission maximum value has been reported for "COc1ccc(C#Cc2c3ccccc3c(C#Cc3ccc(OC)cc3)c3cc4ccccc4cc23)cc1" ?
Solution: 576

Exercise: I am curious: what emission maximum value has been reported for "CC(C)(C)c1ccc(-c2cc(-c3ccc(-c4cc(-c5ccc(C(C)(C)C)cc5)c(C(=O)NCc5cccs5)s4)s3)sc2C(=O)NCc2cccs2)cc1" ?
Solution: 450

Exercise: I am curious: what emission maximum value has been reported for "CCCCCCCCCCCCNc1cccc2[n+]1[B-](F)(F)n1c(c3cccc4cccc1c43)=N2" ?
Solution: 522

Exercise: I am curious: what emission maximum value has been reported for "N#CC(C#N)=Cc1ccc(-c2ccc(-c3nc4ccccc4s3)c(O)c2)s1" ?
Solution: 503

Exercise: I am curious: what emission maximum value has been reported for "COc1ccc2cc(/C=C/C3=[O+][B-](F)(F)OC(/C=C/c4ccc5cc(OC)ccc5c4)=C3c3ccccc3)ccc2c1" ?
Solution: 600

Exercise: I am curious: what emission maximum value has been reported for "C(S/C=C/c1ccc(-c2ccc(/C=C/SC=C3CCCCCC3)cc2)cc1)=C1CCCCCC1" ?
Solution: 434

Exercise: I am curious: what emission maximum value has been reported for "c1ccc(N(c2ccccc2)c2ccc(-n3ccc4cc(-c5ccc(C6(c7ccccc7)c7ccccc7-c7ccccc76)cc5)ccc43)cc2)cc1" ?
Solution: 379

Exercise: I am curious: what emission maximum value has been reported for "CC(=O)c1ccc(-c2cccc3ncc(-c4ccccc4)n23)cc1" ?
Solution: 506

Exercise: I am curious: what emission maximum value has been reported for "O=S1(=O)c2ccc(-c3ccc(N(c4ccccc4)c4ccccc4)cc3)cc2C2(c3ccccc3-c3ccccc32)c2cc(-c3ccc(N(c4ccccc4)c4ccccc4)cc3)ccc21" ?
Solution: 465

Exercise: I am curious: what emission maximum value has been reported for "CCN(CC)c1ccc(-c2nc3c(c4c2-c2ccccc2CC4)-c2ccccc2CC3)cc1" ?
Solution: 449

Exercise: I am curious: what emission maximum value has been reported for "CN(C)c1ccc(-c2cc(-c3ccc(N(C)C)cc3)ncn2)cc1" ?
Solution: 429

Exercise: I am curious: what emission maximum value has been reported for "CCN1\C(=C/C=C/C=C/C2=[N+](CC)c3ccc4ccccc4c3C2(C)C)C(C)(C)c2c1ccc1ccccc21" ?
Solution: 710

###

Entries and their emission maximum
# EXPERIMENT NOTES: solvent given as SMILES
# CONDITION SET: in ClC(Cl)Cl
Write the answer as a number in nm, unit excluded.

Record excerpt, results attached:
COMPOUND	QUANTITATIVE RESULT
c1ccc2c(c1)[nH]c1cccnc12	369
CCCCCCN1C(=O)c2cccc3c(-c4ccc(OC)s4)ccc(c23)C1=O	503
C#CCn1c2ccccc2c2cc(/C=C/C3=[N+]4C(=C(c5ccc(I)cc5)c5c(C)cc(/C=C/c6ccc7c(c6)c6ccccc6n7CC#C)n5[B-]4(F)F)C(C)=C3)ccc21	691

Exercise: I am curious: what emission maximum value has been reported for "COc1ccc(N(c2ccc(OC)cc2)c2ccc(-c3ccc(C=C(C#N)C#N)cc3)cc2)cc1" ?
Solution: 696

###

# EXPERIMENT NOTES: solvent given as SMILES
# CONDITION SET: in ClCCl
Entries and their emission maximum
Write the answer as a number in nm, unit excluded.

Record excerpt, results attached:
CPD SMILES	emission maximum / nm
FC(F)(F)c1ccc(C2=Cc3ccccc3[Si]2(c2ccccc2)c2ccccc2)cc1	401
O=c1c2ccccc2n(-c2ccc(-c3ccc(-n4c5ccccc5c(=O)c5ccccc54)cc3)cc2)c2ccccc12	405
CCn1c2ccccc2c2cc(C#Cc3cc(C#Cc4ccc5c(c4)c4ccccc4n5CC)nc(S(C)(=O)=O)n3)ccc21	510

Exercise: I am curious: what emission maximum value has been reported for "CCCCOc1c(-c2ccc(N(c3ccccc3)c3ccccc3)cc2)cc2cc(-c3ccc(N(c4ccccc4)c4ccccc4)cc3)c(OCCCC)c3c4c(OCCCC)c(-c5ccc(N(c6ccccc6)c6ccccc6)cc5)cc5cc(-c6ccc(N(c7ccccc7)c7ccccc7)cc6)c(OCCCC)c(c1c23)c54" ?
Solution: 490

Exercise: I am curious: what emission maximum value has been reported for "CCN(CC)c1ccc2cc(C#N)/c(=N\C(=O)C(C)C)oc2c1" ?
Solution: 460

Values compiled from the Deep4Chem optical property database.
